assay: Phase I safety and pharmacokinetics study in normal human volunteers; type: in vivo; conditions: human, in vivo, iv, 1 mg/kg
Where a SMILES comes first, the peptide text is derived from it.

molecule: C[C@@H](O)[C@H](N)C(=O)N1CCC[C@H]1C(=O)N1CCC[C@H]1C(=O)N[C@H](C(N)=O)[C@@H](C)O [GLYX-13] (H-TPPT-NH2)
Vd: 0.17 L/kg

----------
experiment: Phase I safety and pharmacokinetics study in normal human volunteers; format: in vivo; conditions: human, plasma, iv, 5 mg/kg
Where a SMILES comes first, the peptide text is derived from it.

compound: C[C@@H](O)[C@H](N)C(=O)N1CCC[C@H]1C(=O)N1CCC[C@H]1C(=O)N[C@H](C(N)=O)[C@@H](C)O [GLYX-13] (H-TPPT-NH2)
clearance [mL/min/kg]: 34.8

----------
test: Phase I safety and pharmacokinetics study in normal human volunteers; type: in vivo; conditions: human, plasma, iv, 5 mg/kg
Where a SMILES comes first, the peptide text is derived from it.
quantity.measured: AUC(0-inf) (ng·h/mL)

molecule: C[C@@H](O)[C@H](N)C(=O)N1CCC[C@H]1C(=O)N1CCC[C@H]1C(=O)N[C@H](C(N)=O)[C@@H](C)O [GLYX-13] (H-TPPT-NH2)
obs.value: 4800

----------
test: Phase I safety and pharmacokinetics study in normal human volunteers; assay type: in vivo; conditions: human, in vivo, iv, 20 mg/kg
Where a SMILES comes first, the peptide text is derived from it.
quantity.measured: Vd (L/kg)

molecule: C[C@@H](O)[C@H](N)C(=O)N1CCC[C@H]1C(=O)N1CCC[C@H]1C(=O)N[C@H](C(N)=O)[C@@H](C)O [GLYX-13] (H-TPPT-NH2)
unit.of.measurement: L/kg
obs.value: 0.1

----------
assay: Phase I safety and pharmacokinetics study in normal human volunteers; format: in vivo; details: human, in vivo, iv, 5 mg/kg
Where a SMILES comes first, the peptide text is derived from it.

compound: C[C@@H](O)[C@H](N)C(=O)N1CCC[C@H]1C(=O)N1CCC[C@H]1C(=O)N[C@H](C(N)=O)[C@@H](C)O [GLYX-13] (H-TPPT-NH2)
Vd (L/kg): 0.31

----------
assay: Phase I safety and pharmacokinetics study in normal human volunteers; type: in vivo; conditions: human, plasma, iv, 20 mg/kg
Where a SMILES comes first, the peptide text is derived from it.

molecule: C[C@@H](O)[C@H](N)C(=O)N1CCC[C@H]1C(=O)N1CCC[C@H]1C(=O)N[C@H](C(N)=O)[C@@H](C)O [GLYX-13] (H-TPPT-NH2)
unit.of.measurement: µg/mL
Cmax: 182

----------
experiment: Phase I safety and pharmacokinetics study in normal human volunteers; assay type: in vivo; settings: human, plasma, iv, 1 mg/kg
Where a SMILES comes first, the peptide text is derived from it.

molecule: C[C@@H](O)[C@H](N)C(=O)N1CCC[C@H]1C(=O)N1CCC[C@H]1C(=O)N[C@H](C(N)=O)[C@@H](C)O [GLYX-13] (H-TPPT-NH2)
Cmax [ng/mL]: 5200

----------
experiment: Phase I safety and pharmacokinetics study in normal human volunteers; type: in vivo; settings: human, plasma, iv, 10 mg/kg
Where a SMILES comes first, the peptide text is derived from it.
quantity.measured: clearance

molecule: C[C@@H](O)[C@H](N)C(=O)N1CCC[C@H]1C(=O)N1CCC[C@H]1C(=O)N[C@H](C(N)=O)[C@@H](C)O [GLYX-13] (H-TPPT-NH2)
quantity.measured: clearance
obs.value: 9 mL/min/kg

----------
test: Phase I safety and pharmacokinetics study in normal human volunteers; type: in vivo; settings: human, in vivo, iv, 10 mg/kg
Where a SMILES comes first, the peptide text is derived from it.

compound: C[C@@H](O)[C@H](N)C(=O)N1CCC[C@H]1C(=O)N1CCC[C@H]1C(=O)N[C@H](C(N)=O)[C@@H](C)O [GLYX-13] (H-TPPT-NH2)
Vd, L/kg: 0.12

----------
assay: Phase I safety and pharmacokinetics study in normal human volunteers; assay type: in vivo; conditions: human, plasma, iv, 20 mg/kg
Where a SMILES comes first, the peptide text is derived from it.

molecule: C[C@@H](O)[C@H](N)C(=O)N1CCC[C@H]1C(=O)N1CCC[C@H]1C(=O)N[C@H](C(N)=O)[C@@H](C)O [GLYX-13] (H-TPPT-NH2)
unit.of.measurement: ng·h/mL
AUC(0-inf): 67200
